System: field bindweed
ASSAY_INFO: Test E pre-/postemergence herbicide test
Format: in vivo, Convolvulus arvensis
EXPERIMENTAL_PARAMETERS: Preemergence, 125 g ai/ha; scale 0 to 100
PARAMETER: Plant response rating, Bindweed, Field

CCc1nn(C(C)(C)C)cc1C(=O)Nc1cc(C(=O)N(C)C)ccc1F    40

For every listed record, write down its Plant response rating, Bindweed, Field.
1. CCNC(=O)c1ccc(F)c(NC(=O)c2cn(C(C)(C)C)nc2CC)c1
2. CCc1nn(C(C)C)nc1C(=O)Nc1cccc(C(=O)N2CCCCC2)c1
3. CCn1nc(C(C)(C)C)cc1C(=O)Nc1cc(C(=O)N(C)C)ccn1

1. 50
2. 10
3. 90

* * *

System: Surinam grass
ASSAY_INFO: Test C pre-/postemergence herbicide test
Assay type: in vivo, Urochloa decumbens
EXPERIMENTAL_PARAMETERS: 250 g ai/ha; scale 0-100; preemergence
PARAMETER: Plant response rating, Surinam Grass
Numbers only.

Here's what some known entries look like.
C=CCNC(=O)c1cccc(NC(=O)c2nn(C(C)C)nc2CC)c1    100
CCNC(=O)c1ccc(F)c(NC(=O)c2cn(C(C)(C)C)nc2CC)c1    95
C=CCNC(=O)c1cccc(NC(=O)c2cc(C(C)(C)C)nn2C)n1    50

Attention now shifts to the item below.
Look up Plant response rating, Surinam Grass for this compound: CCc1nn(C(C)C)nc1C(=O)Nc1cccc(C(=O)N(C)CC)c1
95

* * *

Kindly supply the reported Plant response rating, Kochia values for the records listed here.
Tested on: kochia
ASSAY_INFO: Test C pre-/postemergence herbicide test
Assay type: in vivo, Kochia scoparia
EXPERIMENTAL_PARAMETERS: 500 g ai/ha; scale 0 to 100 (0 no effect, 100 complete control); visual, 12 to 14 days; preemergence
Answers are plain numbers.

Here's what some known entries look like.
CCc1nc(C(C)(C)C)sc1C(=O)Nc1cccc(C(=O)NCC2CC2)c1    95
CCc1nn(C(C)C)nc1C(=O)Nc1cccc(C(=O)N2CCCCC2)c1    100

For every listed record, write down its Plant response rating, Kochia.
1. CCn1nc(C(C)(C)C)cc1C(=O)Nc1ccc(OC)c(OC)c1
2. CCc1nn(C(C)C)nc1C(=O)Nc1cccc(C(=O)N(C)CC)c1

1. 100
2. 100

* * *

System: Surinam grass
ASSAY_INFO: Test B pre-/postemergence herbicide test
Format: in vivo, Urochloa decumbens
EXPERIMENTAL_PARAMETERS: 125 g ai/ha; 0 is no effect, 100 is complete control; preemergence
PARAMETER: Plant response rating (0 to 100 scale), Surinam Grass

Here's what some known entries look like.
CCc1nn(C(C)(C)CC)nc1C(=O)Nc1cccc(OC(F)(F)F)c1 [Compound 374]    10
CCc1nn(C(C)C)nc1C(=O)Nc1cccc(C(=O)N(C)CC)c1 [Compound 386]    80
CCc1nn(C(C)(C)C)nc1C(=O)Nc1cccc(C(=O)N(C)C)c1 [Compound 364]    100
Cc1nn(C(C)C)nc1C(=O)Nc1cc(C(=O)N2CC=CC2)ccc1F [Compound 402]    0

Attention now shifts to the item below.
Look up Plant response rating (0 to 100 scale), Surinam Grass for this compound: CCSCNC(=O)c1cccc(NC(=O)c2cc(C(C)(C)C)nn2CC)c1 [Compound 329]
0

* * *

Tested on: cocklebur
ASSAY_INFO: Test C pre-/postemergence herbicide test
Assay type: in vivo, Xanthium strumarium
EXPERIMENTAL_PARAMETERS: 125 g ai/ha; scale 0 (no effect) to 100 (complete control); visual, 12 to 14 days; preemergence
Text: […]
PARAMETER: Plant response rating, Cocklebur
Numbers only.

Here's what some known entries look like.
CCn1nc(C2(C)CC2)cc1C(=O)Nc1cc(C(=O)N2CC=CC2)ccc1F [Compound 301]    0
CCc1nc(C(C)(C)C)sc1C(=O)Nc1cccc(C(=O)N(CC)CC)c1 [Compound 205]    0
CCn1nc(C(C)(C)C)cc1C(=O)Nc1ccc(OC)c(OC)c1 [Compound 298]    0
CCN1N=C(C(C)(C)C)CC1C(=O)Nc1cc(C(=O)N2CC=CC2)ccc1F (racemic) [Compound 310]    0

For every listed record, write down its Plant response rating, Cocklebur.
1. CCN(CC)C(=O)c1cccc(NC(=O)c2sc(C(C)(C)C)nc2C)c1 [Compound 199]
2. CCOC(=O)c1cc(NC(=O)c2cc(C(C)(C)C)nn2CC)ccc1OCC [Compound 95]
3. CCNC(=O)c1cccc(NC(=O)c2cc(C(C)(C)C)nn2CCF)c1 [Compound 35]
4. CCn1nc(C(C)(C)C)cc1C(=O)Nc1cccc(C(=O)NCC2CC2)c1 [Compound 62]

0
5
20
0

For every listed record, write down its Plant response rating, Cocklebur.
1. CCN1CCc2c(NC(=O)c3cc(C(C)(C)C)nn3CC)cccc2C1=O [Compound 63]
2. CC(=O)c1cccc(NC(=O)c2cc(C(C)(C)C)nn2CCF)c1 [Compound 128]

0
10

* * *

Kindly supply the reported Plant response rating, Pigweed values for the records listed here.
Tested on: pigweed
ASSAY_INFO: Test B pre-/postemergence herbicide test
Format: in vivo, Amaranthus retroflexus
EXPERIMENTAL_PARAMETERS: preemergence, 125 g ai/ha; 0 to 100 scale, 0 is no effect, 100 is complete control
One number for each entry.

Here's what some known entries look like.
Cn1nc(C(C)(C)C)cc1C(=O)Nc1cccc(C#N)c1 [Compound 121]    80
CCn1nc(C(C)(C)C)cc1C(=O)Nc1cccc(C(=O)NCC2CC2)c1 [Compound 62]    100
CC(C)(C)c1cc(C(=O)Nc2cccc(SC(F)(F)F)c2)n(CCF)n1 [Compound 132]    100
CC(=NO)c1cccc(NC(=O)c2cc(C(C)(C)C)nn2C)c1 [Compound 107]    0
CCCCOc1cccc(NC(=O)c2cc(C(C)(C)C)nn2CC)c1 [Compound 137]    80

For every listed record, write down its Plant response rating, Pigweed.
1. CCn1nc(C(C)(C)C)cc1C(=O)Nc1cccc(C(=O)NC(C)C)c1 [Compound 51]
2. C=Cn1nc(C(C)(C)C)cc1C(=O)Nc1cccc(C(=O)N(CC)CC)c1 [Compound 34]
3. CCn1nc(C(C)(C)C)cc1C(=O)Nc1cccc2c1CCN(C1CCCC1)C2=O [Compound 66]
4. CCNC(=O)c1cccc(NC(=O)c2cc(C(C)(C)C)nn2CC)n1 [Compound 144]
5. CCn1nc(C(C)(C)C)cc1C(=O)Nc1cc(C(=O)NCC2CC2)ccn1 [Compound 155]
6. CCn1nc(C(C)(C)C)cc1C(=O)Nc1cc(C(=O)NC(C)(C)C)ccn1 [Compound 154]
7. CCn1nc(C(C)(C)C)cc1C(=O)Nc1ccc(OC)c(C(=O)OC(C)C)c1 [Compound 101]

1. 100
2. 100
3. 0
4. 100
5. 100
6. 90
7. 100

* * *

System: small flower umbrella sedge
ASSAY_INFO: Test B flooded paddy test
Assay type: in vivo, Cyperus difformis
EXPERIMENTAL_PARAMETERS: 1000 g ai/ha, scale 0 to 100 (0 no effect, 100 complete control)
Kindly supply the reported Sedge, Umbrella plant response rating values for the records listed here.
Numbers only.

Here's what some known entries look like.
CCn1nc(C(C)(C)C)cc1C(=O)Nc1cc(C(=O)N(C)OC)ccc1F    80
CCc1nn(C(C)C)nc1C(=O)Nc1cccc(C(=O)N2CCCCC2)c1    80
Cc1nn(C(C)(C)C)nc1C(=O)Nc1cc(C(=O)N(C)C)ccc1F    80
CCn1nc(C(C)(C)C)cc1C(=O)Nc1ccnc(C(=O)N2CC=CC2)c1    0
CN(C)C(=O)c1cccc(NC(=O)c2nn(C(C)(C)C)nc2Br)c1    90

For every listed record, write down its Sedge, Umbrella plant response rating.
1. CCNC(=O)c1cccc(NC(=O)c2nn(C(C)C)nc2CC)c1
2. CCn1nc(C(C)(C)C)cc1C(=O)Nc1ccnc(C(=O)N(C)C)c1
3. CCc1nn(C(C)(C)CC)nc1C(=O)Nc1cc(C(=O)N2CC=CC2)ccc1F
4. CCN(C(C)=O)C(=O)c1ccc(F)c(NC(=O)c2cc(C(C)(C)C)nn2CC)c1

1: 80; 2: 70; 3: 60; 4: 90

* * *

Kindly supply the reported Plant response rating, Barnyardgrass values for the records listed here.
Test system: barnyardgrass
ASSAY_INFO: Test B pre-/postemergence herbicide test
Type: in vivo, Echinochloa crus-galli
EXPERIMENTAL_PARAMETERS: 500 g ai/ha; visual rating 0-100, 0 no effect, 100 complete control; preemergence
Numbers only.

Here's what some known entries look like.
CC(=O)c1cccc(NC(=O)c2sc(C(C)(C)C)nc2C)c1    40
CON=C(C)c1cccc(NC(=O)c2cc(C(C)(C)C)nn2C)c1    70
CC(=NO)c1cccc(NC(=O)c2cc(C(C)(C)C)nn2C)c1    0
CCn1nc(C(C)(C)C)cc1C(=O)Nc1ccc(OC)c(C(=O)OC(C)C)c1    70
CCc1nc(C(C)(C)C)sc1C(=O)Nc1cccc(C(=O)NCC2CC2)c1    90

For every listed record, write down its Plant response rating, Barnyardgrass.
1. CCOC(=O)c1cccc(NC(=O)c2sc(C(C)(C)C)nc2CC)c1
2. CCCn1nc(C(C)(C)C)cc1C(=O)Nc1cccc(C(C)=NO)c1
3. CCn1nc(C(C)(C)C)cc1C(=O)Nc1cccc(OCCCF)c1
4. CC(=O)c1cccc(NC(=O)c2cc(C(C)(C)C)nn2CCF)c1

1. 0
2. 90
3. 70
4. 90
